PROCEDURE_TEXT: Renal Toxicity Screening Protocol, toxicity compared to NSC-119875
Format: in vivo
CONDITION_LABEL: score relative to NSC119875
QUANTITY: Clinical Chemistry - Creatinine

COMPOUND	MEASURED
N[C@@H]1CCCC[C@H]1N.O=C([O-])c1ccc(C(=O)[O-])c(C(=O)[O-])c1.[H+].[Pt+2]	1
NC1CCCCC1N.O=S(=O)([O-])[O-].[Pt+2] (stereo not shown)	1
CC(C)N.CC(C)N.[Cl-].[Cl-].[OH-].[OH-].[Pt]	1
N.N.O=C([O-])C1(C(=O)[O-])CCC1.[Pt+2]	1

###

PROCEDURE_TEXT: Renal Toxicity Screening Protocol, toxicity compared to NSC-119875
Assay type: in vivo
CONDITION_LABEL: score relative to NSC119875
Reported Body Weight Loss is given for each of the following compounds.

COMPOUND	Body Weight Loss
CC(C)N.CC(C)N.[Cl-].[Cl-].[OH-].[OH-].[Pt]	2
NC1CCCCC1N.O=S(=O)([O-])[O-].[Pt+2] (stereo not shown)	2
N.N.O=C([O-])C1(C(=O)[O-])CCC1.[Pt+2]	1
N[C@@H]1CCCC[C@H]1N.O=C([O-])c1ccc(C(=O)[O-])c(C(=O)[O-])c1.[H+].[Pt+2]	3

###

PROCEDURE_TEXT: Renal Toxicity Screening Protocol, toxicity compared to NSC-119875
Format: in vivo
CONDITION_LABEL: sum of ten parameter scores

COMPOUND	TOTAL SCORE
N.N.O=C([O-])C1(C(=O)[O-])CCC1.[Pt+2]	21
NC1CCCCC1N.O=S(=O)([O-])[O-].[Pt+2] (stereo not shown)	24
N[C@@H]1CCCC[C@H]1N.O=C([O-])c1ccc(C(=O)[O-])c(C(=O)[O-])c1.[H+].[Pt+2]	23
CC(C)N.CC(C)N.[Cl-].[Cl-].[OH-].[OH-].[Pt]	25

###

PROCEDURE_TEXT: Renal Toxicity Screening Protocol, toxicity compared to NSC-119875
Type: in vivo
CONDITION_LABEL: score relative to NSC119875

MOLECULE	Histopathology - Hematopoietic
NC1CCCCC1N.O=S(=O)([O-])[O-].[Pt+2] (stereo not shown) [NSC-250427]	4
N[C@@H]1CCCC[C@H]1N.O=C([O-])c1ccc(C(=O)[O-])c(C(=O)[O-])c1.[H+].[Pt+2] [NSC-271674]	5
N.N.O=C([O-])C1(C(=O)[O-])CCC1.[Pt+2] [NSC-241240]	5
CC(C)N.CC(C)N.[Cl-].[Cl-].[OH-].[OH-].[Pt] [NSC-256927]	4

###

PROCEDURE_TEXT: Renal Toxicity Screening Protocol, toxicity compared to NSC-119875
Type: in vivo
CONDITION_LABEL: score relative to NSC119875
QUANTITY: Histopathology - Lymphatic

COMPOUND	MEASURED
N.N.O=C([O-])C1(C(=O)[O-])CCC1.[Pt+2]	1
CC(C)N.CC(C)N.[Cl-].[Cl-].[OH-].[OH-].[Pt]	4
NC1CCCCC1N.O=S(=O)([O-])[O-].[Pt+2] (stereo not shown)	2
N[C@@H]1CCCC[C@H]1N.O=C([O-])c1ccc(C(=O)[O-])c(C(=O)[O-])c1.[H+].[Pt+2]	1

###

PROCEDURE_TEXT: Renal Toxicity Screening Protocol, toxicity compared to NSC-119875
Assay type: in vivo
CONDITION_LABEL: score relative to NSC119875
Reported Histopathology - Renal is given for each of the following molecules.

MOLECULE	Histopathology - Renal
N[C@@H]1CCCC[C@H]1N.O=C([O-])c1ccc(C(=O)[O-])c(C(=O)[O-])c1.[H+].[Pt+2]	2
NC1CCCCC1N.O=S(=O)([O-])[O-].[Pt+2] (stereo not shown)	2
CC(C)N.CC(C)N.[Cl-].[Cl-].[OH-].[OH-].[Pt]	2
N.N.O=C([O-])C1(C(=O)[O-])CCC1.[Pt+2]	1

###

PROCEDURE_TEXT: Renal Toxicity Screening Protocol, toxicity compared to NSC-119875
Format: in vivo
CONDITION_LABEL: score relative to NSC119875

COMPOUND	Hematology - Hematocrit
CC(C)N.CC(C)N.[Cl-].[Cl-].[OH-].[OH-].[Pt]	4
N.N.O=C([O-])C1(C(=O)[O-])CCC1.[Pt+2]	4
NC1CCCCC1N.O=S(=O)([O-])[O-].[Pt+2] (stereo not shown)	3
N[C@@H]1CCCC[C@H]1N.O=C([O-])c1ccc(C(=O)[O-])c(C(=O)[O-])c1.[H+].[Pt+2]	3

###

PROCEDURE_TEXT: Renal Toxicity Screening Protocol, toxicity compared to NSC-119875
Assay type: in vivo
CONDITION_LABEL: score relative to NSC119875
QUANTITY: Clinical Chemistry - Serum Glutamic Pyruvic Transaminase

COMPOUND	MEASURED
N.N.O=C([O-])C1(C(=O)[O-])CCC1.[Pt+2]	3
CC(C)N.CC(C)N.[Cl-].[Cl-].[OH-].[OH-].[Pt]	3
NC1CCCCC1N.O=S(=O)([O-])[O-].[Pt+2] (stereo not shown)	5
N[C@@H]1CCCC[C@H]1N.O=C([O-])c1ccc(C(=O)[O-])c(C(=O)[O-])c1.[H+].[Pt+2]	3
